Test system: HT29 colon
Assay info: NCI tumour cell line growth inhibition, 48 h; in the data active means GI50 below about 0.43 µM; inactive means the rest
Give one outcome, nothing more. List: label 1 (active), label 0 (inactive)

Below, 4 compounds whose answers are already recorded.
CCC[CH2][Sn]1([CH2]CCC)[O]C(=O)c2cccnc2[O]1 | label 0
CC(C)[C@H](N)C(=O)N1CCC[C@H]1B(O)O | label 0
COc1cc([N+](=O)[O-])c(OC)cc1-c1nc2sc(Cl)cn2c1/C(N)=N/C(=N)N | label 0
CCC(C)(CC(C)(C)C(=O)NCC(=O)NC(Cc1ccccc1)C(=O)NC(Cc1ccccc1)C(=O)NCC(=O)NC1CC(OC2CC(O)(C(=O)CO)Cc3c(O)c4c(c(O)c32)C(=O)c2c(OC)cccc2C4=O)OC(C)C1O)C(=O)NCC(C)O (stereo not given) | label 0

Please examine the following record next.
Query block: Record request — test call for CCN(CC)CCCCNc1c2ccccc2[n+](C)c2c1[nH]c1ccccc12
Result block: label 1

###

Tested on: SNB-75 CNS
Assay info: NCI tumour cell line growth inhibition, 48 h
Assign Satisfied to entries whose TGI meets or exceeds 3 µM; assign Not satisfied to the rest.

FC(F)(F)c1ccc(Nc2nc(-c3c(C(F)(F)F)nc4ccccn34)cs2)cc1 | Not satisfied
CN(C)CCCSc1nc2ccccc2[nH]1 | Satisfied
CCCCOC(=O)C1C2CCC(O2)C1C(=O)OCCCC (stereo not given) | Satisfied
CC(C)Cn1cnc2c(NCC(C)O)nc3ccccc3c21 (stereo not given) | Satisfied

Query block: Could you tell me if the measured TGI of CCOC(=O)P(=O)(O)c1ccc(N(C)Cc2ccccc2)cc1 reaches 3 µM or more?
Result block: Satisfied

Query block: // next record COc1cc(C(=O)O[C@H](C(=O)NCCCCCNC(=O)[C@@H](OC(=O)c2cc(OC)cc3c(C)cccc23)[C@]2(C)CO2)[C@]2(C)CO2)c2cccc(C)c2c1
Result block: Satisfied

Query block: // next record Cn1cc(-c2nc(-c3c[nH]c4ccncc34)cs2)c2cc(Br)ccc21
Result block: Not satisfied

###

System: KM12 colon
Assay info: NCI tumour cell line growth inhibition, 48 h
Measure name: TGI (µM)
Supply the numeric figure in µM, leaving out any unit text.

Example entries begin here.
FC(F)(F)c1ccc(Nc2nc(-c3c(C(F)(F)F)nc4ccccn34)cs2)cc1 | 4.23
O=C(O)c1nc2cc(C(F)(F)F)ccc2nc1Nc1ccc(F)cc1 | 30.3
CC(C)N(Cc1ccccc1)c1c(S)ssc1=S | 21.7

As a next step, examine the molecule that follows.
Query block: Fill blank: measured TGI of the molecule COc1ccc2cc(C(=O)/C=C/c3ccc(Cl)cc3Cl)ccc2c1 is ____.
Result block: 35

###

Test system: MDA-MB-435
Assay info: NCI tumour cell line growth inhibition, 48 h
Reported values of TGI for individual entries

Example entries begin here.
CS(=O)(=O)c1nc(-c2cc3c(c(S(C)(=O)=O)n2)CCC3)cc2c1CCCCC2 | > 100 µM
CCOC(CN(C)C(=O)Nc1cccc2ccccc12)OCC | > 10 µM

Query block: Fill blank: measured TGI of the compound CCOC(=O)c1cnc2oc3ccc(O)cc3c2c1C is ____.
Result block: > 100 µM

###

Reported values of TGI for individual entries
Tested on: SNB-19 CNS
Assay info: NCI tumour cell line growth inhibition, 48 h

Example entries begin here.
Cn1c2ccccc2c2c(-c3ccccc3)cc3c(c21)C(=O)C=CC3=O | > 10 µM
C=C(C)C(=O)O[C@H]1CC(=C)[C@@H]2C[C@H](O)[C@](O)(CCl)[C@@H]2[C@H]2OC(=O)C(=C)[C@@H]21 | 32.2 µM

Query block: Fill blank: measured TGI of the molecule COc1cc(O)c2c(=O)cc(-c3ccc(O)cc3O)oc2c1CC=C(C)C is ____.
Result block: 44.5 µM

Query block: // next record Cc1cc(=O)[nH]c(-n2[nH]c(C)c(CCO)c2=O)n1
Result block: > 100 µM

###

Reported values of TGI for individual entries
Tested on: UACC-62 melanoma
Assay info: NCI tumour cell line growth inhibition, 48 h

Example entries begin here.
COC1=C(OC)C(=O)C(Cc2c(Cl)nc3sc(C)cn23)=C(C)C1=O | 25.6 µM
CNC1=C(C)C(=O)C(=O)C([C@H](C)CCC=C(C)C)=C1O | > 72.3 µM
COc1ccc(-c2cc(=O)[nH]c3c(OC)c4ccccc4c(OC)c23)cc1 | > 100 µM
Cc1ccc(S(=O)(=O)N/N=C/c2c(O)ccc3ccccc23)cc1 | 49.4 µM
Cc1ccc2c(c1)[nH]c(=S)n2/C=C1\C(=O)Oc2ccccc2C1=O | > 100 µM
O=c1[nH]c2cc(Cl)ccc2nc1/C(=N\O)C(O)c1cccc([N+](=O)[O-])c1 (stereo not given) | > 100 µM

Query block: Fill blank: measured TGI of the compound CCOC(=O)c1cnc2oc3ccc(O)cc3c2c1C is ____.
Result block: > 100 µM

Query block: // next record O=S1(=O)N=C(SCc2ccccc2)N(c2ccccc2)c2ccncc21
Result block: > 100 µM

Query block: // next record C=C1C(=O)O[C@H]2[C@H]1CC/C(COC(=O)NCc1cn(C)c3ccccc13)=C\CC[C@@]1(C)O[C@@H]21
Result block: 4.33 µM

Query block: // next record COc1cc2c(c(O)c1OC)-c1c(cc(OC)c(OC)c1OC)CC(C)C(C)C2 (stereo not given)
Result block: > 100 µM

Query block: // next record NN(CC(=O)O)CC(=O)O
Result block: > 100 µM

Query block: // next record CCCCCCCCCCCCCCCCCCNc1ccn(C2OC(COP(=O)(O)OCC3OC(n4cc(F)c(=O)[nH]c4=O)CC3O)C(O)C2O)c(=O)n1 (stereo not given)
Result block: > 74.4 µM

Query block: // next record Cn1c(=O)c(Br)c(C=O)n(CCO[N+](=O)[O-])c1=O
Result block: 4.9 µM

Query block: // next record NC(N)=N/N=C/c1c(-c2ccc(Cl)cc2)nc2sccn12
Result block: 3.39 µM

Query block: // next record Cc1nc2ccccc2n1COC(Cn1ccnc1)c1ccc(Cl)cc1Cl (stereo not given)
Result block: > 100 µM

###

Reported values of TGI for individual entries
Test system: UO-31 renal
Assay info: NCI tumour cell line growth inhibition, 48 h

Example entries begin here.
COc1ccc(-c2cn(-c3cc(OC)c(OC)c(OC)c3)c(SCc3ccccc3)n2)cc1OC | > 100 µM
Cc1cc(=O)[nH]c(-n2[nH]c(C)c(CCO)c2=O)n1 | > 100 µM

As a next step, examine the compound that follows.
Query block: Fill blank: measured TGI of the compound O=c1oc2ccc3ccccc3c2cc1-c1cn2ccccc2n1 is ____.
Result block: > 100 µM

###

Tested on: SW-620 colon
Assay info: NCI tumour cell line growth inhibition, 48 h
Reported values of TGI for individual entries

CCOC(=O)c1cccn1S(=O)(=O)c1cc(Cl)ccc1NC(=O)CC | > 100 µM
O=C(O)CNC(=O)c1ccc(-c2ccccc2)cc1 | > 100 µM
COc1ccc(CN2c3ccccc3Sc3ccccc32)c(F)c1 | > 100 µM

As a next step, examine the compound that follows.
Query block: Fill blank: measured TGI of the compound CC(C)(C)OC(=O)N1CCN(CCn2cc(C(F)(F)F)c3c(Cl)ncnc32)CC1 is ____.
Result block: 4.64 µM

###

Tested on: A549 NSCLC
Assay info: NCI tumour cell line growth inhibition, 48 h; in the data active means GI50 below about 0.43 µM; inactive means the rest
Give one outcome, nothing more. List: 1 (yes) (active), 0 (no) (inactive)

Below, 5 molecules whose answers are already recorded.
COc1cc(CSc2nc3ccc(C)cc3c(=O)n2-c2ccccc2)cc(OC)c1OC | 0 (no)
COc1ccc2c(c1)c(=O)oc1cc(OC/C(C)=N\O)ccc12 | 0 (no)
COc1ccc2nc3cccc([N+](=O)[O-])c3c(NCCCCCC(=O)O)c2c1 | 1 (yes)
COc1cc([N+](=O)[O-])c(OC)cc1-c1nc2sc(Cl)cn2c1/C(N)=N/C(=N)N | 0 (no)
CN(O)c1nc(N(C)O)nc(N2CCOCC2)n1 | 0 (no)

Query block: Record request — test call for COc1cc(NC(C)CCCNC2CN3CCC2CC3)c2ncccc2c1 (stereo unspecified)
Result block: 0 (no)

###

Tested on: HCT-116 colon
Assay info: NCI tumour cell line growth inhibition, 48 h
Measure name: TGI (µM)
Supply the numeric figure in µM, leaving out any unit text.

Example entries begin here.
Cc1ccc(S(=O)(=O)n2cc(-c3cc(C(F)(F)F)ccn3)c3cc(Br)ccc32)cc1 | 53
O=C(CCCCCCCCC(=O)N/N=C\c1ccccc1O)N/N=C\c1ccccc1O | 15.2

Query block: What reported TGI corresponds to Cc1cccc(C)c1NC(=O)C(C#N)C1=C(Cl)C(=O)c2ccccc2C1=O (centres undefined) on HCT-116 colon?
Result block: 30.6

Query block: // next record C#Cc1c(F)ccc2cc(O)cc(-c3ncc4c(N5CC6CCC(C5)N6)nc(OC[C@@]56CCCN5C[C@H](F)C6)nc4c3F)c12
Result block: 14

Query block: // next record CC(C)(C)OC(=O)N1CCN(CCn2cc(C(F)(F)F)c3c(Cl)ncnc32)CC1
Result block: 3.15

Query block: // next record COC(=O)C1(C(=O)OC)Cc2ccc(OC)cc2C2=C1C(=O)c1ccccc1C2=O
Result block: 10.9

Query block: // next record COc1ccc(-c2nc(-c3nc4ccc(OC)cc4[nH]3)c3ccccn23)cc1
Result block: 13.1
